# MEASUREMENT_CONTEXT: 288.15 K; 20000 kPa; Liquid; Vibrating tube method
Kindly supply the reported mass density values for the records listed here.
Note: unit kg/m3 is implicit; provide only the numeric part.

# get_value(readout='mass density', item= Cc1ccc(C)s1 )
1005.01

Given the entry c1ccsc1 , report its measured mass density.
1085.9

So what does the record say about mass density for Cc1ccsc1 ?
1041.07

Would you mind telling me what mass density value was observed for Cc1cccs1 ?
1040.39

* * *

# MEASUREMENT_CONTEXT: 333.15 K; 45000 kPa; Liquid; Vibrating tube method
± gives the expanded uncertainty stated by the source.
PROPERTY_NAME: mass density
Write the figure, then the unit, nothing else.

Name the recorded mass density for Cc1ccsc1 .
1016.49 ± 0.51 kg/m3

Param item = c1ccsc1 ; retrieve measured mass density.
1057.32 ± 0.52 kg/m3

Which mass density value belongs to Cc1ccc(C)s1 ?
982.15 ± 0.5 kg/m3

Given the entry Cc1cccs1 , report its measured mass density.
1015.34 ± 0.53 kg/m3
